These measurements were taken from the NIST ThermoML archive (doi:10.1021/je500845d).

Assay: Molar enthalpy of transition or fusion
Conditions: Crystal; DSC
observed-property: Molar enthalpy of transition or fusion (kcal/mol)

Answered examples (5):
* O=C(O)[C@@H](O)c1ccccc1Br [(S)-2-(2-bromophenyl)-2-hydroxyacetic acid] | 5.35
* Cc1ccc([C@H](O)C(=O)O)cc1 [(S)-2-hydroxy-2-(p-tolyl)acetic acid] | 5.35
* O=C(O)C(O)c1ccc(F)cc1Cl (stereo not drawn) [2-chloro-4-fluoromandelic acid] | 4.35
* O=C(O)C(O)c1ccccc1Br (stereo not drawn) [2-(2-bromophenyl)-2-hydroxyacetic acid] | 5.33
* O=C(O)[C@@H](O)c1ccc(Cl)cc1 [(S)-2-(4-chlorophenyl)-2-hydroxyacetic acid] | 6.48

[P] O=C(O)C(O)c1ccc(Cl)cc1F (stereo not drawn) [2-(4-chloro-2-fluorophenyl)-2-hydroxyacetic acid]
[Q] O=C(O)C(O)c1cccc(Br)c1 (stereo not drawn) [2-(3-bromophenyl)-2-hydroxyacetic acid]
// pick min by Molar enthalpy of transition or fusion: P , Q Your answer should be the label of the entry you select.
P

----------
Conditions: Crystal; DTA
observed-property: Normal melting temperature (°C)

# count of solved cases: 6
• O=C(O)C(O)c1ccc(Br)cc1 (configuration not stated) [2-(4-bromophenyl)-2-hydroxyacetic acid] = 118.1
• O=C(O)[C@@H](O)c1ccc(F)cc1Cl [(S)-2-(2-chloro-4-fluorophenyl)-2-hydroxyacetic acid] = 132.8
• O=C(O)C(O)c1ccc(Cl)cc1F (configuration not stated) [2-(4-chloro-2-fluorophenyl)-2-hydroxyacetic acid] = 90.5
• O=C(O)C(O)c1ccccc1Br (configuration not stated) [2-(2-bromophenyl)-2-hydroxyacetic acid] = 86.8
• O=C(O)C(O)c1cccc(Br)c1 (configuration not stated) [2-(3-bromophenyl)-2-hydroxyacetic acid] = 119.6
• O=C(O)C(O)c1ccc(I)cc1 (configuration not stated) [2-hydroxy-2-(4-iodophenyl)acetic acid] = 142.2

[P] Cc1ccc(C(O)C(=O)O)cc1 (configuration not stated) [2-hydroxy-2-(p-tolyl)acetic acid]
[Q] O=C(O)C(O)c1ccc(F)cc1Cl (configuration not stated)
I'd appreciate it if you could identify which of P and Q has the greater Normal melting temperature. Answer by quoting the chosen item's label.
P
(P: 143.8 °C, Q: 97.6 °C)

----------
Experiment: Molar enthalpy of transition or fusion
Details: Crystal; DSC
observed-property: Molar enthalpy of transition or fusion (kJ/mol)

- O=C(O)[C@@H](O)c1ccc(Br)cc1 [(S)-2-(4-bromophenyl)-2-hydroxyacetic acid]: 17.2
- Cc1ccc(C(O)C(=O)O)cc1 (configuration not stated) [2-hydroxy-2-(p-tolyl)acetic acid]: 25.6
- O=C(O)C(O)c1cccc(I)c1 (configuration not stated) [2-hydroxy-2-(3-iodophenyl)acetic acid]: 24.6
- O=C(O)C(O)c1ccc(I)cc1 (configuration not stated) [2-hydroxy-2-(4-iodophenyl)acetic acid]: 30.4

[a] Cc1cccc([C@H](O)C(=O)O)c1 [(S)-2-hydroxy-2-(m-tolyl)acetic acid]
[b] O=C(O)[C@@H](O)c1ccc(F)cc1Cl [(S)-2-(2-chloro-4-fluorophenyl)-2-hydroxyacetic acid]
Param pair: a , b . Output: the one whose Molar enthalpy of transition or fusion is numerically greater. Let me know the label of the one you choose.
a

[1] O=C(O)[C@@H](O)c1cccc(Br)c1 [(S)-2-(3-bromophenyl)-2-hydroxyacetic acid]
[2] O=C(O)[C@@H](O)c1ccc(Cl)cc1F [(S)-2-(4-chloro-2-fluorophenyl)-2-hydroxyacetic acid]
Pick one, 1 or 2 : lowest reported Molar enthalpy of transition or fusion. Could you answer with the label of the item you picked?
2
(2: 15.1 kJ/mol, 1: 23 kJ/mol)

----------
Details: Crystal; DTA
observed-property: Normal melting temperature (°C)

- Cc1ccccc1C(O)C(=O)O (stereo not drawn) [2-hydroxy-2-(o-tolyl)acetic acid]: 103.8
- O=C(O)C(O)c1ccc(Cl)cc1 (stereo not drawn) [2-(4-chlorophenyl)-2-hydroxyacetic acid]: 120.1
- O=C(O)[C@@H](O)c1cccc(Br)c1 [(S)-2-(3-bromophenyl)-2-hydroxyacetic acid]: 103.1
- O=C(O)[C@@H](O)c1ccc(Cl)cc1 [(S)-2-(4-chlorophenyl)-2-hydroxyacetic acid]: 119.6
- Cc1cccc(C(O)C(=O)O)c1 (stereo not drawn) [2-hydroxy-2-(m-tolyl)acetic acid]: 92.4
- O=C(O)C(O)c1cccc(I)c1 (stereo not drawn) [2-hydroxy-2-(3-iodophenyl)acetic acid]: 97.0
- Cc1cccc([C@H](O)C(=O)O)c1 [(S)-2-hydroxy-2-(m-tolyl)acetic acid]: 109.7
- Cc1ccc([C@H](O)C(=O)O)cc1 [(S)-2-hydroxy-2-(p-tolyl)acetic acid]: 131.5

----------
Settings: Crystal; DTA
observed-property: Normal melting temperature (°C)

• O=C(O)[C@@H](O)c1ccc(Br)cc1 [(S)-2-(4-bromophenyl)-2-hydroxyacetic acid] = 127.6
• O=C(O)[C@@H](O)c1ccc(Cl)cc1F [(S)-2-(4-chloro-2-fluorophenyl)-2-hydroxyacetic acid] = 107.8
• O=C(O)C(O)c1ccccc1I (centres undefined) [2-hydroxy-2-(2-iodophenyl)acetic acid] = 109.0
• O=C(O)[C@@H](O)c1ccccc1Br [(S)-2-(2-bromophenyl)-2-hydroxyacetic acid] = 119.4

----------
Test: Molar enthalpy of transition or fusion
Conditions: Crystal; DSC
observed-property: Molar enthalpy of transition or fusion (kcal/mol)

• O=C(O)C(O)c1ccccc1I (centres undefined) [2-hydroxy-2-(2-iodophenyl)acetic acid] = 5.98
• O=C(O)C(O)c1ccc(Cl)cc1 (centres undefined) [2-(4-chlorophenyl)-2-hydroxyacetic acid] = 3.87

[P] Cc1cccc(C(O)C(=O)O)c1 (centres undefined) [2-hydroxy-2-(m-tolyl)acetic acid]
[Q] O=C(O)C(O)c1ccc(Br)cc1 (centres undefined) [2-(4-bromophenyl)-2-hydroxyacetic acid]
Field: lower recorded Molar enthalpy of transition or fusion (choose P or Q ) Answer with the label corresponding to your selection.
Q
